Target: T1, mouse DKK1 (R&D Systems) (mouse, UniProt O54908 32-272)
T1 construct: Bought protein
T1 sequence (looked up): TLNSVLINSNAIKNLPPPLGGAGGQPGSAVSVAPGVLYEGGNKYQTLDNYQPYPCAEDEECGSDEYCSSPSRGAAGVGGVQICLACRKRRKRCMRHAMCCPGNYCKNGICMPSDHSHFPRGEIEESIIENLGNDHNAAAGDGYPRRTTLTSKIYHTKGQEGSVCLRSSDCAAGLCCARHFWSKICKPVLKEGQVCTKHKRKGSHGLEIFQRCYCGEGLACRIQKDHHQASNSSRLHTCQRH
Assay: solution equilibrium titration (SET), ECL (BioVeris), Fab
Readout label: pKd
pKd field: float, defined as -log10 of concentration (mol/L).

- Binder: "MOR04947 (Fab, V domains shown) VH: QVQLVQSGAEVKKPGESLKISCKGSGYSFTNYYIGWVRQMPGKGLEWMGIIVPGTSYTIYSPSFQGQVTISADKSISTAYLQWSSLKASDTAMYYCARGIPFRMRGFDYWGQGTLVTVSS VL: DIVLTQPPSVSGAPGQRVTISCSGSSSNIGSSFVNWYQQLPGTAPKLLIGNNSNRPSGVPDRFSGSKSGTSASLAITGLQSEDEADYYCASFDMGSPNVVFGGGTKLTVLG"
  pKd: 10.52
- Binder: "MOR04952 (Fab, V domains shown) VH: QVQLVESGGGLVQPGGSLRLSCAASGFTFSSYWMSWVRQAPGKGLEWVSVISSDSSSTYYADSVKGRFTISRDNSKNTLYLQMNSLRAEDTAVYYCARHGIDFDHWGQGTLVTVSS VL: DIALTQPASVSGSPGQSITISCTGTSSDLGGYNYVSWYQQHPGKAPKLMIYDVNNRPSGVSNRFSGSKSGNTASLTISGLQAEDEADYYCQSYDSPTDSVVFGGGTKLTVLG"
  pKd: 10.15

Lab note: next binder to report on.
Reported pKd ( MOR04910 (Fab, V domains shown, also called anti-DKK1 FAb MOR04910) VH: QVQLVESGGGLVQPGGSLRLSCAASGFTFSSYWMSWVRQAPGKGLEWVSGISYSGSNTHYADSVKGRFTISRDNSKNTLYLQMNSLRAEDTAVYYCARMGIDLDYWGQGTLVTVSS VL: DIALTQPASVSGSPGQSITISCTGTSSDVGGFNYVSWYQQHPGKAPKLMIHDGSNRPSGVSNRFSGSKSGNTASLTISGLQAEDEADYYCQSWDVSPITAVFGGGTKLTVLG ) = 10.38

Data credit: patent US20120023600A1
